- System under test: T1, MC1r (murine B16-F1 cells) (murine, UniProt Q01727 1-315)
- T1 construct: whole, on cells; also called MCr1
- T1 sequence (Q01727 whole entry): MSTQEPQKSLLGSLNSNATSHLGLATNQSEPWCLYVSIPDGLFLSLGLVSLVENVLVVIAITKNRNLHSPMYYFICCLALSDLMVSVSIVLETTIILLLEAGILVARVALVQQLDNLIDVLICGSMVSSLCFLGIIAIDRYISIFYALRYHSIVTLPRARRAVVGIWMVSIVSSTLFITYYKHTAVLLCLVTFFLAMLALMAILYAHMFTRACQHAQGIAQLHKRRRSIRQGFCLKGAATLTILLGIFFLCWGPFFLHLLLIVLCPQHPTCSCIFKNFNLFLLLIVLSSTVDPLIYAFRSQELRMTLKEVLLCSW
- Test description: displacement of 125I-NDP-αMSH, murine B16-F1 cells expressing MC1r
- Procedure: Murine B16-F1 cells expressing MCr1 are used for determination of binding affinity to and agonist activity against the MC1r. Human recombinant CHO cells expressing MC3r, MC4r or MC5r are used for determination of affinity to or agonist activity against the MC3r, MC4r and MC5r, respectively. […] The test items are tested in a concentration range of 10^-13 to 10^-5M.

Binder	Ki / nM
KSYSMEHFRWGKPV (alpha-amino group of Lys1 acetylated; Ac-Lys-Lys attached to the epsilon-amino group of Lys1 (branched amino acid probe Ac-(Ac-Lys-Lys)Lys-); C-terminal amide) [α-MSH Analogue 1: Ac-(Ac-Lys-Lys)Lys-Ser-Tyr-Ser-Met-Glu-His-Phe-Arg-Trp-Gly-Lys-Pro-Val-NH2]	1.2

The reported numbers originate from patent US9950027.
